- assayed_target: Cyclin-dependent kinase 2 (Homo sapiens, UniProt P24941)
- test_summary: Inhibition of human recombinant CDK2 by Kinomescan method

{"compound": "OCCN1CCN(c2ccc3cc2COC/C=C/COCc2cccc(c2)-c2ccnc(n2)N3)CC1", "relation_sign": "=", "IC50 / nM": 3700}
{"compound": "C1=N/C2=N/c3ccc(OCCN4CCCC4)c(c3)COC/C=C/COCc3cccc(c3)C(=C1)N2 [PACRITINIB]", "relation_sign": ">", "IC50 / nM": 3900}
{"compound": "COc1ccc2cc1COC/C=C/COCc1cccc(c1)-c1ccnc(n1)N2", "relation_sign": "=", "IC50 / nM": 860}
{"compound": "CN(C)CCN(C)c1ccc2cc1COC/C=C/COCc1cccc(c1)-c1ccnc(n1)N2", "relation_sign": "=", "IC50 / nM": 88}
{"compound": "COc1ccc2cc1COC/C=C/COCc1cc(ccc1OCCN1CCCC1)Nc1nccc-2n1", "relation_sign": ">", "IC50 / nM": 10000}
